- Assay target: HLA-DRB1*0801 (Homo sapiens, UniProt P01903+P01911, A100R/A103L/A169T/D86S/F76Y/H45Y/I96F/K41T/L162R/M171V/P40S/Q125H/Q178H/Q39Y/Q99D/R218S/R42G/S66Y/V115G/W38E)
- Assay remarks: biochemical
- Assay type: binding
- Protocol conditions: binding inhibition assay; NB = non-binder (no dose-dependent inhibition); read-out: DRB1*0801 IC50
Where a SMILES comes first, the peptide text is derived from it.
Endpoint: IC50 (µM)
Write down the numeric answer in µM and omit the unit.

INSERT INTO assay_data (molecule, observed_measurement) VALUES
  ('CC[C@H](C)[C@H](NC(=O)[C@H](CO)NC(=O)[C@@H](NC(=O)[C@@H]1CCCN1C(=O)[C@@H](NC(=O)[C@H](CC(=O)O)NC(C)=O)C(C)C)[C@@H](C)CC)C(=O)N[C@H](C(=O)N[C@@H](CCCNC(=N)N)C(=O)N[C@@H](CC(N)=O)C(=O)N[C@@H](CC(N)=O)C(=O)N[C@@H](CCC(=O)O)C(=O)N[C@@H](CCC(N)=O)C(=O)N[C@H](C(=O)N[C@@H](CO)C(=O)N[C@@H](CCC(N)=O)C(=O)N[C@@H](CCC(=O)O)C(=O)N[C@@H](C)C(N)=O)[C@@H](C)O)[C@@H](C)CC [EBA175_014] (Ac-DVPISIIRNNEQTSQEA-NH2)', 18.7);

For the next question, use this molecule.
For the molecule CC(=O)N[C@@H](Cc1ccccc1)C(=O)N[C@@H](CCC(N)=O)C(=O)N[C@@H](CC(N)=O)C(=O)N[C@@H](Cc1ccc(O)cc1)C(=O)N[C@H](C(=O)N[C@@H](Cc1ccc(O)cc1)C(=O)N[C@@H](CC(C)C)C(=O)N[C@@H](CO)C(=O)N[C@@H](CCCCN)C(=O)N[C@@H](CC(N)=O)C(=O)N[C@H](C(=O)N[C@H](C(=O)N[C@@H](CC(=O)O)C(=O)N[C@@H](CC(N)=O)C(=O)N[C@@H](Cc1c[nH]c2ccccc12)C(=O)N[C@@H](CCC(=O)O)C(N)=O)C(C)C)C(C)C)[C@@H](C)O [AMA1_004] (Ac-FQNYTYLSKNVVDNWE-NH2) , give its measured IC50 value.
0.01

---

- Assay target: HLA-A*0201 (Homo sapiens, UniProt P04439, D140Y/D185E/D98H/E176V/E277Q/G131W/G231S/I119V/I121R/I166T/I218V/L300P/L318F/N151K/N90K/P208A/P217A/Q86G/Q94H/R138H/R169H/T345S)
- Assay remarks: In vitro class I HLA binding assay (fluorescence polarization competition)
- Protocol conditions: allele A*0201; fluorescence polarization competition; read-out: IC50 (nM), in vitro HLA binding affinity
Where a SMILES comes first, the peptide text is derived from it.
Strictly below 800 nM in IC50: t. Otherwise: f.

Solved entries (count: 3):
INSERT INTO results (compound, category_label) VALUES
  ('CC(C)C[C@H](NC(=O)[C@@H](N)Cc1ccccc1)C(=O)N1CCC[C@H]1C(=O)N[C@H](C(=O)NCC(=O)N[C@@H](C)C(=O)N[C@@H](Cc1ccccc1)C(=O)N[C@@H](CCCCN)C(=O)N[C@@H](C)C(=O)O)[C@@H](C)O [AMA1_379] (H-FLPTGAFKA-OH)', 'f'),
  ('CC[C@H](C)[C@H](NC(=O)[C@@H](NC(=O)[C@H](Cc1ccc(O)cc1)NC(=O)[C@@H](NC(=O)[C@H](Cc1ccc(O)cc1)NC(=O)[C@H](CCCCN)NC(=O)[C@H](CC(N)=O)NC(=O)[C@H](CC(C)C)NC(=O)[C@@H](N)Cc1ccc(O)cc1)C(C)C)[C@@H](C)O)C(=O)O [RIPR_0064] (H-YLNKYVYTI-OH)', 't'),
  ('CC[C@H](C)[C@H](NC(=O)[C@H](CO)NC(=O)[C@H](CO)NC(=O)[C@H](Cc1ccccc1)NC(=O)[C@H](CC(C)C)NC(=O)[C@@H](N)CC(N)=O)C(=O)N[C@@H](CCC(=O)O)C(=O)N[C@H](C(=O)N[C@H](C(=O)O)C(C)C)[C@@H](C)CC [AMA1_092] (H-NLFSSIEIV-OH)', 'f');

Could you please tell me whether IC50 recorded for CC[C@H](C)[C@H](NC(=O)[C@H](Cc1c[nH]c2ccccc12)NC(=O)[C@H](CO)NC(=O)[C@H](CC(=O)O)NC(=O)[C@H](CCCCN)NC(=O)[C@@H](NC(=O)[C@@H](N)CCCCN)C(C)C)C(=O)N[C@H](C(=O)N[C@@H](CC(C)C)C(=O)O)[C@@H](C)O [CYRPA_082] (H-KVKDSWITL-OH) is less than 800 nM?
f

---

- Assay target: HLA-DRB1*0401 (Homo sapiens, UniProt P01903+P01911, A100K/A169T/F76Y/I96L/K127E/L162R/M171V/N62H/P40V/Q125Y/R42H/S133A/S149N/S66Y/V115G/V209L/W38E)
- Construct: purchased
- Assay remarks: biochemical
- Assay type: binding
- Protocol conditions: binding inhibition assay; NB = non-binder (no dose-dependent inhibition); read-out: DRB1*0401 IC50
- Excerpt: The binding assay conducted by EpiVax yields an indirect measure of peptide-MHC affinity as it utilizes a competition assay format per the methodology described in Steere et al. ([35]). […] Time-resolved fluorescence measurement of the bound labeled reference peptide complex present in each mixture is detected with a europium-linked probe via fluorescent spectrophotometry using a SpectraMax M5 system. […]
Where a SMILES comes first, the peptide text is derived from it.
pIC50 overview
Bear in mind: pIC50 is minus log10 of a mol/L concentration; give just that figure.

INSERT INTO measurements (compound, observed_measurement) VALUES
  ('CC(=O)N[C@@H](Cc1ccccc1)C(=O)N[C@@H](CCC(N)=O)C(=O)N[C@@H](CC(N)=O)C(=O)N[C@@H](Cc1ccc(O)cc1)C(=O)N[C@H](C(=O)N[C@@H](Cc1ccc(O)cc1)C(=O)N[C@@H](CC(C)C)C(=O)N[C@@H](CO)C(=O)N[C@@H](CCCCN)C(=O)N[C@@H](CC(N)=O)C(=O)N[C@H](C(=O)N[C@H](C(=O)N[C@@H](CC(=O)O)C(=O)N[C@@H](CC(N)=O)C(=O)N[C@@H](Cc1c[nH]c2ccccc12)C(=O)N[C@@H](CCC(=O)O)C(N)=O)C(C)C)C(C)C)[C@@H](C)O [AMA1_004] (Ac-FQNYTYLSKNVVDNWE-NH2)', 5.01);

For the next question, use this compound.
For the compound CC[C@H](C)[C@H](NC(=O)[C@H](CCC(=O)O)NC(=O)[C@@H](NC(=O)[C@H](CCCCN)NC(=O)[C@H](CCCCN)NC(C)=O)C(C)C)C(=O)N[C@@H](Cc1ccccc1)C(=O)N[C@@H](CCCNC(=N)N)C(=O)N[C@@H](CO)C(=O)N[C@@H](CCCNC(=N)N)C(=O)N[C@@H](Cc1ccccc1)C(=O)N[C@@H](CO)C(=O)N[C@@H](CO)C(=O)N[C@@H](CCCCN)C(=O)N[C@@H](CC(C)C)C(=O)N[C@@H](CCC(N)=O)C(=O)N[C@@H](CS)C(=O)N[C@@H](CCC(N)=O)C(N)=O [RIPR_011] (Ac-KKVEIFRSRFSSKLQCQ-NH2) , give its measured pIC50 value.
4.66

---

- Assay target: HLA-DRB1*1301 (Homo sapiens, UniProt P01903+P01911, A100E/A169T/K41T/L162R/M171V/P40S/Q125H/Q178H/Q39Y/Q99D/R42S/S66N/T262R/W38E/Y61H)
- Assay remarks: biochemical
- Assay type: binding
- Protocol conditions: binding inhibition assay; NB = non-binder (no dose-dependent inhibition); read-out: DRB1*1301 IC50
Where a SMILES comes first, the peptide text is derived from it.
Endpoint: IC50 (µM)
Write down the numeric answer in µM and omit the unit.

For the molecule CC[C@H](C)[C@H](NC(=O)[C@H](CC(N)=O)NC(=O)[C@H](CCC(N)=O)NC(=O)[C@H](CC(N)=O)NC(=O)[C@H](CC(N)=O)NC(=O)[C@H](Cc1ccccc1)NC(=O)[C@@H](NC(=O)[C@H](CS)NC(=O)[C@H](CC(C)C)NC(=O)[C@H](Cc1ccc(O)cc1)NC(=O)[C@H](CC(=O)O)NC(=O)[C@@H](N)Cc1ccc(O)cc1)C(C)C)C(=O)N[C@H](C(=O)N[C@@H](CO)C(=O)N[C@@H](CC(=O)O)C(=O)N[C@@H](CCCCN)C(=O)N[C@@H](CC(N)=O)C(N)=O)[C@@H](C)O [RIPR_007] (H-YDYLCVFNNQNITSDKN-NH2) , give its measured IC50 value.
9.26
